Target under test: human CCR8 (human, UniProt P51685 1-355)
Assay explanation: cell-based or functional assay
Please provide measured residual hCCL1 (100 nM) Gi2 response, protocol #3, mAb 0.05 µg/mL for the entries that follow.
Give bare numbers, in %.

{"columns": ["Binder", "Endpoint value"],
 "data": [
  ["anti-CCR8 mAb 1-3 (antibody, V domains shown, Murine hybridoma mAb) VH: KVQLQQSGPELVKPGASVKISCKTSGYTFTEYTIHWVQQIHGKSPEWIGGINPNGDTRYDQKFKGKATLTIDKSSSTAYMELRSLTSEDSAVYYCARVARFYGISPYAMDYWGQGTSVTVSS VL: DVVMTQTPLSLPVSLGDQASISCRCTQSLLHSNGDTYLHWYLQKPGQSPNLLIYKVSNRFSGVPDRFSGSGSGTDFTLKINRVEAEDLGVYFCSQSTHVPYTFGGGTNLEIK", 92],
  ["anti-CCR8 mAb 1-11 (antibody, V domains shown, Murine hybridoma mAb) VH: QVQLQQPGAELVKPGASVKMSCKATGYTFTGYNMHWVKQTPGQGLEWIGAISPGKGDTSYNLKFKGKATLTTDKSSSTAYMQLSSLTSADSAVYYCARSGGTPFAYWGQGTLVTVSA VL: DVVMTQTPLSLPVSLGDQASISCRSSQSLVHSNGDTYLYWYLQKPGQSPKLLIYKVSNRFSGVPDRFSGSGSGTDFTLKINRVEAEDLGVYFCSQSTHVPYTFGGGTKLEIK", 102],
  ["anti-CCR8 mAb 1-14 (antibody, V domains shown, Murine hybridoma mAb) VH: QVQLVETGGGLVRPGNSLKLSCVTSGFTFSNYRMHWLRQPPGKRLEWIAVIKVKSDNYGANYAESVKGRFTISRDDSKSSVYLQVNRLREEDTATYYCSSPTYPGSSGFAYWGQGTLVTVSA VL: DIQMTQTTSSLSASLGDRVTISCRASQDISNYLNWYQQKPDGTVKLLIYYTSRLHSGVPSRFSGSGSGTDYSLTISNLEQEDIATYFCQQGNKFPPTFGGGTKLEIN", 92],
  ["anti-CCR8 mAb 1-5 (antibody, V domains shown, Murine hybridoma mAb) VH: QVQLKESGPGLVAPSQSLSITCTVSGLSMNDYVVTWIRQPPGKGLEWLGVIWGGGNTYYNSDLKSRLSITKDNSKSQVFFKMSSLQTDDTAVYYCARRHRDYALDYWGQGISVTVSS VL: DVVMTQTPLSLPVSLGDQASISCRSSQSLVYSNGNTYLHWYLQKPGQSPKLLIYKVSNRFSGVPDRFSGSGSGTDFTLKISRVEAEDLGVYFCSQSTYVPPTFGGGTKLEIK", 99]
]}

Kindly review the next binder as well.
(Q) What does the data say about its residual hCCL1 (100 nM) Gi2 response, protocol #3, mAb 0.05 µg/mL? Entry: anti-CCR8 mAb 1-2 (antibody, V domains shown, Murine hybridoma mAb) VH: EVQLVESGGGLVQPKGSLKLSCAASGFTFNTYAMNWVRQAPGKGLEWVARIRSKSNNYATYYADSVKDRFTISRDDSQSMLYLQMNNLKTEDTAMYYCVRGREAYYRYDGGYYAMDYWGQGTSVTVSS VL: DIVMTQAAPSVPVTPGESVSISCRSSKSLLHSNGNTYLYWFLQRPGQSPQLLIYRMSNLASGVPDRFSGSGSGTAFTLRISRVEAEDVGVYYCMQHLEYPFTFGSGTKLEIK
(A) 74
